target: human cannabinoid CB2 receptor (Homo sapiens, UniProt P34972); construct: expressed in transfected cells; host or cells: Saccharomyces cerevisiae strain MMY23 (cassette integrated at the ura3 locus, GPD promoter); experiment: Cannabinoid CB2 receptor agonist activity, yeast reporter assay; assay type: cell-based; conditions: read-out: efficacy (Emax) at the cloned human cannabinoid CB2 receptor
Sequence (P34972 whole entry): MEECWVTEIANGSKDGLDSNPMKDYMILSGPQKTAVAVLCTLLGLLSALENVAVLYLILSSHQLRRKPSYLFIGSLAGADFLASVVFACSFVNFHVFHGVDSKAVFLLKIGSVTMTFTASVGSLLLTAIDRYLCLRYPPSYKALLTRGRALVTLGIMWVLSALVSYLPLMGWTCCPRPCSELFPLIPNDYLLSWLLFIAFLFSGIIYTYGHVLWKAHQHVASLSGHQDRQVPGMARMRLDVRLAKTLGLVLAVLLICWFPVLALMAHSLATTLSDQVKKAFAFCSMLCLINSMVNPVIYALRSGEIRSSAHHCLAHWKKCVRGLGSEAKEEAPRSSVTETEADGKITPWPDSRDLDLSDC
metric_name: Emax

Query string: Kindly state the measured Emax obtained for O=C(NCC1CCOCC1)c1cnc(Nc2ccc(Br)cc2F)cc1C1CC1 [Example 94] with human cannabinoid CB2 receptor (Homo sapiens, UniProt P34972).
Result string: > 50%

Query string: Kindly state the measured Emax obtained for Cc1ccc(Nc2cc(C3CC3)c(C(=O)NCC3CCOCC3)cn2)cc1F [Example 111] with human cannabinoid CB2 receptor (Homo sapiens, UniProt P34972).
Result string: > 50%

Query string: Kindly state the measured Emax obtained for COc1cccc(Nc2cc(C3CC3)c(C(=O)NCC3CCC3)cn2)c1 [Example 115] with human cannabinoid CB2 receptor (Homo sapiens, UniProt P34972).
Result string: > 50%

Query string: Kindly state the measured Emax obtained for Cc1ccc(Nc2cc(C3CC3)c(C(=O)NCC3CCOCC3)cn2)cc1Cl [Example 112] with human cannabinoid CB2 receptor (Homo sapiens, UniProt P34972).
Result string: > 50%

Query string: Kindly state the measured Emax obtained for O=C(NCC1CCOCC1)c1cnc(Nc2cc(F)ccc2Cl)cc1C1CC1 [Example 108] with human cannabinoid CB2 receptor (Homo sapiens, UniProt P34972).
Result string: > 50%

Query string: Kindly state the measured Emax obtained for O=C(NCC1CCCC1)c1cnc(Nc2cccc(Cl)c2Cl)cc1C1CC1 [Example 119] with human cannabinoid CB2 receptor (Homo sapiens, UniProt P34972).
Result string: > 50%

Query string: Kindly state the measured Emax obtained for O=C(NCC1CCOCC1)c1cnc(Nc2ccc(F)c(C(F)(F)F)c2)cc1C1CC1 [Example 93] with human cannabinoid CB2 receptor (Homo sapiens, UniProt P34972).
Result string: > 50%

Query string: Kindly state the measured Emax obtained for O=C(NCC1CCOCC1)c1cnc(Nc2ccc(C(F)(F)F)c(F)c2)cc1C1CC1 [Example 92] with human cannabinoid CB2 receptor (Homo sapiens, UniProt P34972).
Result string: > 50%

Query string: Kindly state the measured Emax obtained for O=C(NCC1CCCC1)c1cnc(Nc2cccc(F)c2F)cc1C1CC1 [Example 122] with human cannabinoid CB2 receptor (Homo sapiens, UniProt P34972).
Result string: > 50%

Query string: Kindly state the measured Emax obtained for O=C(NCC1CCC1)c1cnc(Nc2ccc(F)c(C(F)(F)F)c2)cc1C1CC1 [Example 123] with human cannabinoid CB2 receptor (Homo sapiens, UniProt P34972).
Result string: > 50%

Query string: Kindly state the measured Emax obtained for N#Cc1ccc(Nc2cc(C3CCCC3)c(C(=O)NCC3CCOCC3)cn2)cc1 [Example 27] with human cannabinoid CB2 receptor (Homo sapiens, UniProt P34972).
Result string: > 50%

Query string: Kindly state the measured Emax obtained for O=C(NCC1CCOCC1)c1cnc(Nc2cc(Cl)ccc2F)cc1C1CC1 [Example 101] with human cannabinoid CB2 receptor (Homo sapiens, UniProt P34972).
Result string: > 50%

Query string: Kindly state the measured Emax obtained for O=C(NCC1CCOCC1)c1cnc(Nc2cc(C(F)(F)F)ccc2Br)cc1C1CC1 [Example 104] with human cannabinoid CB2 receptor (Homo sapiens, UniProt P34972).
Result string: > 50%

Query string: Kindly state the measured Emax obtained for O=C(NCC1CCCC1)c1cnc(Nc2ccc(C(F)(F)F)c(Cl)c2)cc1C1CC1 [Example 120] with human cannabinoid CB2 receptor (Homo sapiens, UniProt P34972).
Result string: > 50%

Query string: Kindly state the measured Emax obtained for O=C(NCC1CCOCC1)c1cnc(Nc2cccc(F)c2)cc1C1CCCC1 [Example 15] with human cannabinoid CB2 receptor (Homo sapiens, UniProt P34972).
Result string: > 50%

Query string: Kindly state the measured Emax obtained for Cc1ccc(Cl)cc1Nc1cc(C2CC2)c(C(=O)NCC2CCOCC2)cn1 [Example 105] with human cannabinoid CB2 receptor (Homo sapiens, UniProt P34972).
Result string: > 50%

Query string: Kindly state the measured Emax obtained for N#Cc1ccc(Nc2cc(C3CC3)c(C(=O)NCC3CCOCC3)cn2)c(F)c1 [Example 121] with human cannabinoid CB2 receptor (Homo sapiens, UniProt P34972).
Result string: > 50%

Query string: Kindly state the measured Emax obtained for O=C(NCC1CCOCC1)c1cnc(Nc2ccc(Cl)cc2F)cc1C1CC1 [Example 98] with human cannabinoid CB2 receptor (Homo sapiens, UniProt P34972).
Result string: > 50%

Query string: Kindly state the measured Emax obtained for O=C(NCC1CCOCC1)c1ccc(Nc2cccc(Cl)c2)nc1C1CC1 [Example 124] with human cannabinoid CB2 receptor (Homo sapiens, UniProt P34972).
Result string: > 50%

Query string: Kindly state the measured Emax obtained for O=C(NCC1CCOCC1)c1cnc(Nc2ccc(Br)c(F)c2)cc1C1CC1 [Example 97] with human cannabinoid CB2 receptor (Homo sapiens, UniProt P34972).
Result string: > 50%

Query string: Kindly state the measured Emax obtained for Cc1cc(C#N)ccc1Nc1cc(C2CC2)c(C(=O)NCC2CCOCC2)cn1 [Example 106] with human cannabinoid CB2 receptor (Homo sapiens, UniProt P34972).
Result string: > 50%

Query string: Kindly state the measured Emax obtained for COc1cccc(Nc2cc(C3CC3)c(C(=O)NCC3CCCC3)cn2)c1 [Example 118] with human cannabinoid CB2 receptor (Homo sapiens, UniProt P34972).
Result string: > 50%

Query string: Kindly state the measured Emax obtained for O=C(NCC1CCOCC1)c1cnc(Nc2cccc(C(F)(F)F)c2F)cc1C1CC1 [Example 20] with human cannabinoid CB2 receptor (Homo sapiens, UniProt P34972).
Result string: > 50%

Query string: Kindly state the measured Emax obtained for O=C(NCC1CCOCC1)c1cnc(Nc2cc(C(F)(F)F)ccc2F)cc1C1CC1 [Example 102] with human cannabinoid CB2 receptor (Homo sapiens, UniProt P34972).
Result string: > 50%

Query string: Kindly state the measured Emax obtained for O=C(NCC1CCOCC1)c1cnc(Nc2cccc(Cl)c2Cl)cc1C1CCCC1 [Example 25] with human cannabinoid CB2 receptor (Homo sapiens, UniProt P34972).
Result string: > 50%

Query string: Kindly state the measured Emax obtained for O=C(NCC1CCOCC1)c1cnc(Nc2ccc(Cl)cc2F)cc1C1CCCC1 [Example 24] with human cannabinoid CB2 receptor (Homo sapiens, UniProt P34972).
Result string: > 50%

Query string: Kindly state the measured Emax obtained for O=C(NCC1CCC1)c1cnc(Nc2ccc(F)cc2Cl)cc1C1CC1 [Example 116] with human cannabinoid CB2 receptor (Homo sapiens, UniProt P34972).
Result string: > 50%

Query string: Kindly state the measured Emax obtained for O=C(NCC1CCOCC1)c1ccc(Nc2cccc(OC(F)(F)F)c2)nc1C1CC1 [Example 127] with human cannabinoid CB2 receptor (Homo sapiens, UniProt P34972).
Result string: > 50%

Query string: Kindly state the measured Emax obtained for O=C(NCC1CCOCC1)c1ccc(Nc2cccc(Br)c2)nc1C1CC1 [Example 126] with human cannabinoid CB2 receptor (Homo sapiens, UniProt P34972).
Result string: > 50%
